- Assayed system: T1, human 2Ig-B7H3 (B7H3-2Ig-His) (human, UniProt Q5ZPR3 29-466)
- T1 construct: Recombinant His-tagged protein immobilised on a CM5 chip; also called 21g-B7H3; B7H3-21g-His; not shown: His tag
- T1 sequence: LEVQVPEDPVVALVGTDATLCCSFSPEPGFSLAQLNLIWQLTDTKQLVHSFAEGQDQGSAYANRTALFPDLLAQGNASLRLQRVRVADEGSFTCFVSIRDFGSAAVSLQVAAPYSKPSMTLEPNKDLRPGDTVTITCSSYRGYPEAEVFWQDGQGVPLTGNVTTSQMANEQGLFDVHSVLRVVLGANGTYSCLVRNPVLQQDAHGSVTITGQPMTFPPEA
- Procedure details: SPR, Biacore T200, 2Ig-B7H3-His on CM5 chip, 1:1 fit
Observation type: pKd
Value format note: pKd is -log10 of concentration (mol/L); just state the number.

- Binder: "8H9 antibody conjugated with p-SCN-Bn-DOTA, CAR 2.6 (antibody, mouse IgG1, kappa, V domains shown, p-SCN-Bn-DOTA conjugated, CAR 2.6 per antibody; sites not stated, Chelator conjugate, not metal-labelled) VH: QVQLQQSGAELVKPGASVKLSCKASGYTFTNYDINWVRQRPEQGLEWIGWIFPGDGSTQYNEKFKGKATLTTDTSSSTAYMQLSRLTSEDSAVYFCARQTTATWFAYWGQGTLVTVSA VL: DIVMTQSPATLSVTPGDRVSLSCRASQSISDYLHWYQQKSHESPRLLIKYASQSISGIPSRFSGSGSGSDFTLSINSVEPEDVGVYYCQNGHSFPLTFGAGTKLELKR"
  pKd: 9.24
- Binder: "8H9 antibody conjugated with p-SCN-Bn-DOTA, CAR 0.8 (antibody, mouse IgG1, kappa, V domains shown, p-SCN-Bn-DOTA conjugated, CAR 0.8 per antibody; sites not stated, Chelator conjugate, not metal-labelled) VH: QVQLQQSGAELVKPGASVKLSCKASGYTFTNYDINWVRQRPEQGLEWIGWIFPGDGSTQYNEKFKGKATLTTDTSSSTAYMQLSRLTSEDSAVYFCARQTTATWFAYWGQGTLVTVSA VL: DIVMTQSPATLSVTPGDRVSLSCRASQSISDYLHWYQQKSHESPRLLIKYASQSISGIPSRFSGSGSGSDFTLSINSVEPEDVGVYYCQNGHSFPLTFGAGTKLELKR"
  pKd: 9.78
- Binder: "8H9 antibody conjugated with p-SCN-Bn-DOTA, CAR 7.5 (antibody, mouse IgG1, kappa, V domains shown, p-SCN-Bn-DOTA conjugated, CAR 7.5 per antibody; sites not stated, Chelator conjugate, not metal-labelled) VH: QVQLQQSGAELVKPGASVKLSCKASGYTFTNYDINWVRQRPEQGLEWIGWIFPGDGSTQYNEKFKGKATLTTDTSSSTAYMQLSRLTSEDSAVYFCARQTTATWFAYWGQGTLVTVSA VL: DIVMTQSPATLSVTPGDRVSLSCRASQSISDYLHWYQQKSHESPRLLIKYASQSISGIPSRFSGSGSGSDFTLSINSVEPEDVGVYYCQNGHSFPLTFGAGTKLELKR"
  pKd: 8.77

Return reported pKd; argument: 8H9 antibody conjugated with p-SCN-Bn-CHX-A″-DTPA, CAR 0.6 (antibody, mouse IgG1, kappa, V domains shown, p-SCN-Bn-CHX-A″-DTPA conjugated, CAR 0.6 per antibody; sites not stated, Chelator conjugate, not metal-labelled; also called conj-CHX-A″-DTPA (CAR0.6)) VH: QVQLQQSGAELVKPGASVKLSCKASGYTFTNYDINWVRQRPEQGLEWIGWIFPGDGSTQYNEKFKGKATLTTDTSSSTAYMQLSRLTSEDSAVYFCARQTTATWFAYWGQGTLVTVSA VL: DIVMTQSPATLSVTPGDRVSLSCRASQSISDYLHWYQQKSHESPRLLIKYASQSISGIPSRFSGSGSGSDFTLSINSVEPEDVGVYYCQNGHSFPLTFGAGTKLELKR 8.91

Return reported pKd; argument: 8H9 antibody comprising a light chain according to SEQ ID No.: 2 and heavy chain according to SEQ ID No.: 1 (antibody, mouse IgG1, kappa, V domains shown, Unconjugated mouse IgG1 mAb; also called m8H9; murine 8H9) VH: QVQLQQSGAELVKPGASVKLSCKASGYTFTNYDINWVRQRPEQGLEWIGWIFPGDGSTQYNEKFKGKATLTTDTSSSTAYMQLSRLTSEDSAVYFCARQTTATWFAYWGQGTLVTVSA VL: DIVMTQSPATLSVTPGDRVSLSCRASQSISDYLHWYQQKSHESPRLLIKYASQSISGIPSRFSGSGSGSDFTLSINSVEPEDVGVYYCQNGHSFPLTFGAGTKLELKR 10.91

Return reported pKd; argument: 8H9 antibody conjugated with p-SCN-Bn-CHX-A″-DTPA, CAR 1.4 (antibody, mouse IgG1, kappa, V domains shown, p-SCN-Bn-CHX-A″-DTPA conjugated, CAR 1.4 per antibody; sites not stated, Chelator conjugate, not metal-labelled) VH: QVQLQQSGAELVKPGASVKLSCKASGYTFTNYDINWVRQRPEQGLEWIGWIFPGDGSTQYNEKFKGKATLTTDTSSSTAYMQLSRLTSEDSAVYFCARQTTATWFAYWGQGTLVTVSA VL: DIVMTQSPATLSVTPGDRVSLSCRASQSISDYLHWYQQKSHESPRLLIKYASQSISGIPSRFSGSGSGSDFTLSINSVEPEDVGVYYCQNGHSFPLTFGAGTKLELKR 8.71

Return reported pKd; argument: 8H9 antibody conjugated with p-SCN-Bn-DOTA, CAR 2.4 (antibody, mouse IgG1, kappa, V domains shown, p-SCN-Bn-DOTA conjugated, CAR 2.4 per antibody; sites not stated, Chelator conjugate, not metal-labelled) VH: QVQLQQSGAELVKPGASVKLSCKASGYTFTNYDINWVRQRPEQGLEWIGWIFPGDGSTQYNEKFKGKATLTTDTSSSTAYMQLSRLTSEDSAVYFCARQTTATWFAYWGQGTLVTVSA VL: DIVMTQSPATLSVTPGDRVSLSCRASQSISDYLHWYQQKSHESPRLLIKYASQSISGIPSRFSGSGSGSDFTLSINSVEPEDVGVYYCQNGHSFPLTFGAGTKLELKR 9.65
